Hello, the source for this data is the supplement of paper PMC8728848, in case you need it.

Biological target: Neu5Ac9Ac(a2-3)Gal(b1-4)GlcNAc
Assay: glycan array binding signal (z-score within array); higher = stronger binding
Conditions: glycan notation: IUPAC condensed, linker removed
The entries come from a sample that favours the strongest signals as a whole.
Use Yes when the recorded glycan array binding signal (z-score) is no lower than -0.2; use No when it is lower.

{"binder": "Mermaid2 (Stilbonema majum) (protein) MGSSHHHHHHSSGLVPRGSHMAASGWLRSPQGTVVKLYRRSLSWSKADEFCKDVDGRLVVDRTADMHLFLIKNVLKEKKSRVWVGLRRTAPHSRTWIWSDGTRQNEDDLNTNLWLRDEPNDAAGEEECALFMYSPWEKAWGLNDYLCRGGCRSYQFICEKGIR", "assigned category": "No"}
{"binder": "rMpL (Macrolepiota procera) (protein) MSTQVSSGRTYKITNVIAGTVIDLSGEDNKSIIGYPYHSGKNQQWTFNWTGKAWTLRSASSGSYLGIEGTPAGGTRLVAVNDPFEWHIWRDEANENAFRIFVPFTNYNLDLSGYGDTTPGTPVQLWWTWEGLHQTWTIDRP", "assigned category": "Yes"}
{"binder": "Gal 4 (Homo sapiens), Q8K419 (protein) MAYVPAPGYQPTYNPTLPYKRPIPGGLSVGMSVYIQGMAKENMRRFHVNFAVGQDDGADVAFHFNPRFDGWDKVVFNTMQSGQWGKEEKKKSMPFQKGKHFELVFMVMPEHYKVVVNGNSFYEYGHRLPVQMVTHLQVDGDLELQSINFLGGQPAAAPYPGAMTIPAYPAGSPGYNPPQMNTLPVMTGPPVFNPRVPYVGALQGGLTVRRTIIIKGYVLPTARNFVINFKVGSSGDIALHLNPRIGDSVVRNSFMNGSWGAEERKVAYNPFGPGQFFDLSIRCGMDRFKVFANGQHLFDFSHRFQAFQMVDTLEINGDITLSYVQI", "assigned category": "Yes"}
{"binder": "ArathEULS3 (Arabidopsis thaliana), Q945P1 (protein) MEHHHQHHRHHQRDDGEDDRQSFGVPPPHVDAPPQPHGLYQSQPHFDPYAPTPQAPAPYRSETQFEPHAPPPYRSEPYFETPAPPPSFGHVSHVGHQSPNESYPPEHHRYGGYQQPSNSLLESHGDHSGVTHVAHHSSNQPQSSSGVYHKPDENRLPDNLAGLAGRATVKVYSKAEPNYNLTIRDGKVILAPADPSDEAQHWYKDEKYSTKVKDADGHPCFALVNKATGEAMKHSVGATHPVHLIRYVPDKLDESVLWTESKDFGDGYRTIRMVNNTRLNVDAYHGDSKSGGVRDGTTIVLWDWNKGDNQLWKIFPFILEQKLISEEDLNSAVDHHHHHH", "assigned category": "No"}
{"binder": "Flo5 (Saccharomyces cerevisiae), P38894 (protein) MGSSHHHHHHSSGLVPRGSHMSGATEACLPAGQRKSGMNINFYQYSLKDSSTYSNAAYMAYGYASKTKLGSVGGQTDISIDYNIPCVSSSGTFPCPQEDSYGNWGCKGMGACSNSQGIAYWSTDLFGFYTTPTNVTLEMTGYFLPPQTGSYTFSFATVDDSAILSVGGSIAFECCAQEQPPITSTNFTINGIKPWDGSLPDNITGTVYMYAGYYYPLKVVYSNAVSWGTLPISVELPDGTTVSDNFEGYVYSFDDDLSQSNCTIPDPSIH", "assigned category": "Yes"}
